pKd listing for selected binders.
- testedOn: T1, PhrB Y424F (Agrobacterium fabrum, UniProt A9CH39 1-507, Y424F)
- T1 sequence: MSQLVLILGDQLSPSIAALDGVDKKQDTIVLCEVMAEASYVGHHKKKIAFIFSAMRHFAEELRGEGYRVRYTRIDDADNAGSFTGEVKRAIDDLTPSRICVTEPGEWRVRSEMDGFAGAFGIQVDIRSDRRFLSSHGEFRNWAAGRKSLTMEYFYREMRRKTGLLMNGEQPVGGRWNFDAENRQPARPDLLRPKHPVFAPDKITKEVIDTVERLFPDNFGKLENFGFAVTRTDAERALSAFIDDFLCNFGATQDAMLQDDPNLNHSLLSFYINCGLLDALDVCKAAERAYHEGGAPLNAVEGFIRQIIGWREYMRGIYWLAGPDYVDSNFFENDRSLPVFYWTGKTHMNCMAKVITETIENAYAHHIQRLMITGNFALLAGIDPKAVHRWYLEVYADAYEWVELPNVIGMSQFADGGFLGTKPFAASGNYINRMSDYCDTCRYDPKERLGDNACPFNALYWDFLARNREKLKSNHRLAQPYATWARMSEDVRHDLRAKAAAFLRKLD
- test: EMSA; reduced FAD, darkness; […] (buffer 1: 50 mM Tris-HCl pH 7.0, 1 mM EDTA, 100 mM NaCl, 5% glycerol, 20 mM DTT); or buffer 2: pH 7.5, 10 mM DTT; […]
- condition: protein: recombinant; tags: C-terminal poly-His (pET21); label: 5' 32P; single strand
Scale note: pKd = -log10(concentration in M).

binder: CATAGGTTGGCATA (ssDNA, (6-4) photoproduct at T7-T8 (the only TT; 254 nm UV, HPLC purified)) [EMSA_1 (6-4)TT photoproduct]
pKd: 4.74

Kindly review the next binder as well.
Notebook: CATAGGTTGGCATA (ssDNA) [EMSA_1 undamaged] , pKd read as 4.55
